Recorded values, source patent US7884124B2.

test system: D-Serine Levels in the cerebellum; experiment: In vivo elevation of D-serine levels in the cerebellum (LC/MS/MS); details: Mus musculus, ip; mice, 50 mg/kg i.p., 6 h; read-out: Fold increase in D-serine in the cerebellum over vehicle
outcomeMeasure: response vs control in vivo at 50 mg/kg

These recorded examples may help you get a feel for the data.
O=C(O)c1cc2c(Br)csc2[nH]1
150 to 200%
O=C(O)c1cc2sc(Cl)cc2[nH]1
< 150%
O=C(O)c1cc2scc(Br)c2[nH]1
< 150%
O=C(O)c1cc2occ(Br)c2[nH]1
< 150%
O=C(O)c1cc2c(F)csc2[nH]1
150 to 200%
O=C(O)c1cc2occ(F)c2[nH]1
> 200%

Query: Given the compound "O=C(O)c1cc2scc(Cl)c2[nH]1" , write its reported response vs control in vivo at 50 mg/kg.
Result: < 150%
